FYI, the data here is from PubChem BioAssay (NCI).

List of growth inhibition values.
Experiment: NCI Yeast Anticancer Drug Screen. Data for the mlh1 rad18 strain (AID 175)
Conditions: S. cerevisiae mlh1 rad18 strain growth inhibition; at 50.0 µM; active compounds read high
Description: Growth inhibition of yeast strains with defined genetic alterations is measured as a screen for potential anti-cancer activity. Selected strains with alterations in DNA damage repair or cell cycle control were exposed to compounds and growth inhibition was measured relative to vehicle treated controls. The strain used in this assay is mlh1 rad18
The panel holds about 79,000 compounds, 15% with a hit somewhere; the sample as a whole holds those more often.
measured_metric: growth inhibition (%)

compound=CCCC/C(=N/O)c1ccccc1 result_units=% observed_measurement=-6.95
compound=NNc1ncnc2c1ncn2Cc1ccccc1 result_units=% observed_measurement=-14.4
compound="NC1=NCC(c2ccccn2)C1c1ccc(F)cc1 (stereo unspecified)" result_units=% observed_measurement=-14
compound="C=CC1(C(=O)O)CCC(C(C)(C)C)CC1 (stereo unspecified)" result_units=% observed_measurement=13.3
compound=CN(C)CCNC(=O)c1ccc2nc3c(nc2c1)C(=O)c1ccccc1-3 result_units=% observed_measurement=15.9
compound="CC(C)(C)OC(=O)NC(CCCCNC(=O)OCc1ccccc1)C(=O)NCCNc1ccc(NCCNC(=O)C(CCCCNC(=O)OCc2ccccc2)NC(=O)OC(C)(C)C)c2c1C(=O)c1ccccc1C2=O (stereo unspecified)" result_units=% observed_measurement=-52.8
compound="CCCCCCC(C)NCC(=O)Nc1ccccc1C (stereo unspecified)" result_units=% observed_measurement=30.6
compound=CC(=O)c1cc2cc(Br)ccc2oc1=O result_units=% observed_measurement=23.6
compound=O=C1COc2ccccc2OCCOCCOc2ccccc2OC1 result_units=% observed_measurement=-14.9
compound=CN(C)C(=O)C1CCNCC1 result_units=% observed_measurement=3.45
compound="CC1(C)CC(C)(OC(=O)c2ccccc2)N=N1 (stereo unspecified)" result_units=% observed_measurement=11.1
compound=CS(=O)(=O)N1COC(=O)[C@@H]1c1ccccc1 result_units=% observed_measurement=3.05
compound=CCN(CC)CCOC(=O)c1ccc(Cl)c(Cl)c1 result_units=% observed_measurement=-9.4
compound=Clc1ccccc1CSc1cc(SCc2ccccc2Cl)nc(SCc2ccccc2Cl)n1 result_units=% observed_measurement=22
compound=c1ccc2cc3c(cc2c1)Cn1c-3nc2ccccc21 result_units=% observed_measurement=27.8
compound="CON(C)S(=O)c1ccc([N+](=O)[O-])cc1 (stereo unspecified)" result_units=% observed_measurement=22.1
compound=COc1ccc2c(=O)c([Se]c3coc4cc(OC)ccc4c3=O)coc2c1 result_units=% observed_measurement=3.25
compound=Oc1nc2nc[nH]n2c1N=Nc1ccccc1 result_units=% observed_measurement=6.9
compound=CCOC(=O)C(C(=O)OCC)=c1sc(=C(C(=O)OCC)C(=O)OCC)s1 result_units=% observed_measurement=9.3
compound="CC1CC(C)(C)OC(C2CC=CCC2)O1 (stereo unspecified)" result_units=% observed_measurement=2.7
compound="CN(C)C(=O)C1Cc2ccccc2CC1C(=O)N(C)C (stereo unspecified)" result_units=% observed_measurement=-9.75
compound=COc1ccc(NC(=O)CC#N)cc1 result_units=% observed_measurement=3.75
compound="O=C(O)C12CCC(CC1=O)C2 (stereo unspecified)" result_units=% observed_measurement=14.1
compound=O=C1CN(c2ccccc2)C(=O)CN1/N=C/c1ccc[nH]1 result_units=% observed_measurement=-13.4
compound=Cc1ccc([N+](=O)[O-])c2c(NCCCN(C)C)ccnc12 result_units=% observed_measurement=49.2
compound=NC(=O)C1=CNCCC1 result_units=% observed_measurement=14.7

* * *

Experiment: NCI Yeast Anticancer Drug Screen. Data for the rad50 strain (AID 155);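 also: 0% = growth of vehicle-only cultures of the same strain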
Settings: S. cerevisiae rad50 strain growth inhibition; at 50.0 µM; active compounds read high
Compounds without any hit were thinned out: in the full panel of roughly 79,000, 15% have a hit.
measured_metric: growth inhibition (%)

compound=NC(=O)c1ccccc1Sc1ccccc1C(N)=O result_units=% observed_measurement=-4.6
compound=CN1CCc2c1nc(-c1ccccc1)c1c2N(C)CC1 result_units=% observed_measurement=2.2
compound=CCOCC(=O)O result_units=% observed_measurement=-15.1
compound="Cc1ccc(S(=O)(=O)OC2C(CI)OCOC(CI)C2OS(=O)(=O)c2ccc(C)cc2)cc1 (configuration not stated)" result_units=% observed_measurement=-1.05
compound="COc1nc(NC2OC(CO)C(O)C(O)C2O)cc(=O)[nH]1 (configuration not stated)" result_units=% observed_measurement=-4.2
compound="CC(C)CCCC(C)C1CCC2C3CC=C4CC(OP(=O)(O)OC5CCC6(C)C(=CCC7C6CCC6(C)C(C(C)CCCC(C)C)CCC76)C5)CCC4(C)C3CCC12C (configuration not stated)" result_units=% observed_measurement=-7.55
compound=O=C(CCCCC(=O)Oc1ccc([N+](=O)[O-])cc1)Oc1ccc([N+](=O)[O-])cc1 result_units=% observed_measurement=10.9
compound=S=C(NCc1cccnc1)Nc1ccc(Cl)c(Cl)c1 result_units=% observed_measurement=26.8
compound=CCOC(CN(C)C)OCC result_units=% observed_measurement=8.6
compound="O=C(O)CC(C(=O)O)C1c2ccccc2-c2ccccc21 (configuration not stated)" result_units=% observed_measurement=-0.1
compound=O=C(CO)CC(=O)CCC(=O)Nc1cccc([N+](=O)[O-])c1 result_units=% observed_measurement=-4.7
compound="C/C(=C\\c1ccccc1)C(=O)C1C(c2ccccc2)CC(=O)C(C)C1c1ccccc1 (configuration not stated)" result_units=% observed_measurement=-3.65
compound="CC1=CC=CNC1(N)Br (configuration not stated)" result_units=% observed_measurement=3.7
compound="N#CN1CCC2CC(=O)CCC2C1 (configuration not stated)" result_units=% observed_measurement=6.2
compound=O=S(=O)(OCCCCCCCCCCOS(=O)(=O)c1ccc(Cl)cc1)c1ccc(Cl)cc1 result_units=% observed_measurement=-7.6
compound="CC(C)(C)C(=CS(=O)/N=C/c1ccccc1)C(C)(C)C (configuration not stated)" result_units=% observed_measurement=-27.4
compound=c1ccc2cc(N3CCOCC3)ccc2c1 result_units=% observed_measurement=-19.1
compound=N#C/C(=C/N1C(=O)CC(=O)NC1=S)c1cccc(Cl)c1 result_units=% observed_measurement=-30.7
compound="CC(=O)OC1C(O)C(C)OC(OC2C(C)OC(OC(=O)[C@@H]3CC[C@@H]4[C@H](C3)OC3(C[C@@H](OC(=O)/C=C/c5ccccc5)[C@@H](C)CO3)[C@@]43CO3)C(O)C2OC(C)=O)C1O (some centres not stated)" result_units=% observed_measurement=91
compound=COc1ccc2nc3c([N+](=O)[O-])ccc(NCCCN(C)C)c3c(NCCCN(C)C)c2c1 result_units=% observed_measurement=-5.15
compound="OC(CNC1CC2CCC1C2)COc1cccc2ccccc12 (configuration not stated)" result_units=% observed_measurement=68.4
compound=Cc1c(C(=O)CC(=O)C(=O)Nc2cc(Cl)ccc2Cl)[n+](=O)c2ccccc2n1[O-] result_units=% observed_measurement=-7.35

* * *

Assay: NCI Yeast Anticancer Drug Screen. Data for the mlh1 rad18 strain (AID 175)
Conditions: S. cerevisiae mlh1 rad18 strain growth inhibition; at 50.0 µM; active compounds read high
Compounds without any hit were thinned out: in the full panel of roughly 79,000, 15% have a hit.
Label fulfilled when growth inhibition is at or above -10%; otherwise label not fulfilled.

compound="CC(N)c1ccc(OCCOc2ccc(C(C)(C)CC(C)(C)C)cc2)cc1 (stereo not given)" class_name=fulfilled
compound="NC(=O)C1C(=O)c2cccc3c2C1CCCC3 (stereo not given)" class_name=fulfilled
compound="CCC(C)C(C)(CO)CO (stereo not given)" class_name=fulfilled
compound=CCCCOC(OCCCC)C(OCCCC)OCCCC class_name=fulfilled
compound="CCC1C(OC)=CC2(CC)CC1(OC)OC2=O (stereo not given)" class_name=fulfilled
compound="COC(=O)c1ccccc1C1CN=NC12Cc1cc(C)ccc1C2=O (stereo not given)" class_name="not fulfilled"
compound="OCC1(F)CC1(c1ccccc1)c1ccccc1 (stereo not given)" class_name="not fulfilled"
compound=O=[N+]([O-])c1cc(Br)c(F)cc1F class_name=fulfilled
compound=CC(=O)CC(C)(C)NC(=S)NCCO class_name="not fulfilled"
compound=CN(C)/N=C/c1cn(C)c(=O)n(C)c1=O class_name=fulfilled
compound=c1ccc(-c2ccc(-c3c(-c4ccccc4)ccc(-c4ccccc4)c3-c3ccccc3)cc2)cc1 class_name=fulfilled
compound=COc1ccc(Nc2cc[nH]c(=O)c2NC(C)=O)cc1 class_name=fulfilled
compound=CN(C)CCCNc1nnc(NCCCN(C)C)c2[nH]cnc12 class_name=fulfilled
compound=CCOC(=O)C1=C(O)C(=O)N(Cc2ccccc2)C1 class_name="not fulfilled"
compound=CCCCC(=O)CCCCCCCCC(=O)CCCC class_name="not fulfilled"
compound=c1cc2cc(C3=NCCN3)[nH]c2cc1C1=NCCN1 class_name=fulfilled
compound=CC(=O)Nc1ncc2ccccc2c1-c1ccc(NC(=O)CCCl)cc1 class_name=fulfilled
compound=CSc1nc(N)c(NS(=O)(=O)c2ccc([N+](=O)[O-])cc2)c(=O)[nH]1 class_name=fulfilled
compound="Cc1ccc(CC2CC(=O)c3ccccc3C2=O)cc1 (stereo not given)" class_name="not fulfilled"
compound=O=C(OCCCCO)c1cc([N+](=O)[O-])cc([N+](=O)[O-])c1 class_name="not fulfilled"
compound=CC(=O)OCCSc1ccc(Cl)cc1 class_name=fulfilled
compound="c1ccc(CNC(c2ccccc2)C(NCc2ccccc2)c2ccccc2)cc1 (stereo not given)" class_name=fulfilled
compound=CN(C)CCNC(=O)c1cccc2c1Oc1cccc([N+](=O)[O-])c1O2 class_name="not fulfilled"
compound="O=C(OC1COC(n2c(=O)oc3cc(Br)c(Cl)cc32)C(OC(=O)c2ccccc2)C1OC(=O)c1ccccc1)c1ccccc1 (stereo not given)" class_name=fulfilled
